# STUDY TARGET: Steroid 17-alpha-hydroxylase/17,20 lyase (Homo sapiens, UniProt P05093)
# Sequence (P05093 whole entry): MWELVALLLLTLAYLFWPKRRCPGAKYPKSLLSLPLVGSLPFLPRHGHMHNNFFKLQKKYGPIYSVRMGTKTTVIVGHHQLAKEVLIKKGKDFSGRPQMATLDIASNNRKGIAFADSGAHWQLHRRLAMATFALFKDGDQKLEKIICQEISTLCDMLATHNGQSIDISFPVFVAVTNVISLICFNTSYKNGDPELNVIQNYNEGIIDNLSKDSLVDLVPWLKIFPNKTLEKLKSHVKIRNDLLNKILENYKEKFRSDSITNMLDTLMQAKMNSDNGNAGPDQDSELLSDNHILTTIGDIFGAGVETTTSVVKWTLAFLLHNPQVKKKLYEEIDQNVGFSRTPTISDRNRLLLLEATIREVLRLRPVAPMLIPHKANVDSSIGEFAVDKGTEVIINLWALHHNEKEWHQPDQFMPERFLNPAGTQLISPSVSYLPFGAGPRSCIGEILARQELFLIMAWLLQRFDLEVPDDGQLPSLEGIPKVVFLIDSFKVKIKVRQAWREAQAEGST
# ASSAY PROTOCOL: Inhibition of human testicular microsomal Cytochrome P450 17A1
Fulfilled if IC50 is below 10 nM. Not fulfilled if not; exact matches included in Not fulfilled.

COMPOUND: C[C@]12CCC(=O)C=C1CCC1C2CC[C@]2(C)C(n3cncn3)=CCC12 (stereo partly specified)
CLASS: Not fulfilled
//
COMPOUND: C[C@]12CCC(=O)C=C1CCC1C2CC[C@]2(C)C(n3ccnc3)=CCC12 (stereo partly specified)
CLASS: Fulfilled
//
COMPOUND: C[C@]12CCC(=O)C=C1CCC1C2CC[C@]2(C)C(n3ccnn3)=CCC12 (stereo partly specified)
CLASS: Not fulfilled
//
COMPOUND: C[C@]12CC[C@H](O)CC1=CC[C@@H]1[C@@H]2CC[C@]2(C)C(n3cncn3)=CC[C@@H]12
CLASS: Not fulfilled
//
COMPOUND: C[C@]12CC[C@H](O)CC1=CCC1C2CC[C@]2(C)C(n3ccnc3)=CCC12 (stereo partly specified)
CLASS: Fulfilled
//
COMPOUND: C[C@]12CC[C@H](O)CC1=CCC1C2CC[C@]2(C)C(n3ccnn3)=CCC12 (stereo partly specified)
CLASS: Not fulfilled
